- measured-target: dipeptidyl aminopeptidase I (Aspergillus oryzae, UniProt Q2UH35)
- Sequence (Q2UH35 17-771): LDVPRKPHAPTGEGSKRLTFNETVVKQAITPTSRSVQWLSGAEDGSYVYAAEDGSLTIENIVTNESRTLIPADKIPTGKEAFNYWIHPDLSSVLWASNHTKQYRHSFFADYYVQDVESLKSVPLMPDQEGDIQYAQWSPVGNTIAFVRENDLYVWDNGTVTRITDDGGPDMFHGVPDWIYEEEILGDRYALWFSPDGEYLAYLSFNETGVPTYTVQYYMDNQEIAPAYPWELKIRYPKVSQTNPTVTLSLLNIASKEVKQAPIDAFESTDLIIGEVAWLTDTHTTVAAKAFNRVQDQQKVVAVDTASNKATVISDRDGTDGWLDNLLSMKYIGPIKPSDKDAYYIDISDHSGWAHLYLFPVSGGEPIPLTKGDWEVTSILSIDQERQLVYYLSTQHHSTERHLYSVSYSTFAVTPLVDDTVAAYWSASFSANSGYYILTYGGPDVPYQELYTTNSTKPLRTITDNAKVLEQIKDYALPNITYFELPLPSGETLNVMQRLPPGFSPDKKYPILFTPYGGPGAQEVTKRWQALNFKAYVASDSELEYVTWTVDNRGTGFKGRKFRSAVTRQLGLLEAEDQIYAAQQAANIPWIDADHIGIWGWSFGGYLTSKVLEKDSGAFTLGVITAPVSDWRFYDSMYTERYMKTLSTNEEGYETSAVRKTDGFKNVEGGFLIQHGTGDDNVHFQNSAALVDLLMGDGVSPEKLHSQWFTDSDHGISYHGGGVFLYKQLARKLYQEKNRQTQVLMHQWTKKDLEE
- experiment: relative activity on mono-, di- and tri-peptide para-nitroanilide substrates
- Type: biochemical
- experimental-setup: enzyme diluted 100-fold, substrate 2 mg/ml stock, pH 7.5, ambient temperature
Where a SMILES comes first, the peptide text is derived from it. The star is where a group is joined. pNA = O=[N+]([O-])c1ccc(N*)cc1
reported-metric: Activity (mOD/min)

1. N=C(N)NCCC[C@H](N)C(=O)N1CCC[C@H]1C(=O)Nc1ccc([N+](=O)[O-])cc1 [Arg-Pro-pNA] (H-Arg-Pro-pNA) = 103

I. CC(C)C[C@H](N)C(=O)Nc1ccc([N+](=O)[O-])cc1 [Leu-pNA]
II. CC(C)[C@H](N)C(=O)N[C@@H](C)C(=O)Nc1ccc([N+](=O)[O-])cc1 [Val-Ala-pNA] (H-Val-Ala-pNA)
III. N[C@@H](CC(=O)O)C(=O)N1CCC[C@H]1C(=O)Nc1ccc([N+](=O)[O-])cc1 [Asp-Pro-pNA] (H-Asp-Pro-pNA)
IV. NCC(=O)N1CCCC1C(=O)Nc1ccc([N+](=O)[O-])cc1 (stereo not drawn) [Gly-Pro-pNA]
Ordering: ascending Activity (mOD/min). Please reply with the labels ordered as requested. Many thanks.
I, II, III, IV
(I: 0 mOD/min, II: 49.5 mOD/min, III: 70.95 mOD/min, IV: 125 mOD/min)

---

- measured-target: dipeptidyl aminopeptidase I (Aspergillus oryzae)
- experiment: relative activity on mono-, di- and tri-peptide para-nitroanilide substrates
- Type: biochemical
- experimental-setup: enzyme diluted 100-fold, pH 7.5, ambient temperature
Where a SMILES comes first, the peptide text is derived from it. The star is where a group is joined. pNA = O=[N+]([O-])c1ccc(N*)cc1
reported-metric: Percent Activity Retative to Ala-Pro-pNA (%)

P. NCC(=O)N1CCCC1C(=O)Nc1ccc([N+](=O)[O-])cc1 (stereo not shown)
Q. CC(C)[C@H](N)C(=O)N[C@@H](C)C(=O)Nc1ccc([N+](=O)[O-])cc1 [Val-Ala-pNA] (H-Val-Ala-pNA)
R. NCC(=O)N[C@@H](CCC(=O)O)C(=O)Nc1ccc([N+](=O)[O-])cc1 [Gly-Glu-pNA] (H-Gly-Glu-pNA)
Exam item: list the entries in increasing order of Percent Activity Retative to Ala-Pro-pNA. Please reply with the labels ordered as requested. Many thanks.
R, Q, P

---

- measured-target: dipeptidyl aminopeptidase I (Aspergillus oryzae, UniProt Q2UH35)
- experiment: relative activity on mono-, di- and tri-peptide para-nitroanilide substrates
- Format: biochemical
- experimental-setup: enzyme diluted 100-fold, pH 7.5, ambient temperature
Where a SMILES comes first, the peptide text is derived from it. The star is where a group is joined. pNA = O=[N+]([O-])c1ccc(N*)cc1
reported-metric: Percent Activity Retative to Ala-Pro-pNA (%)

1. C[C@H](N)C(=O)Nc1ccc([N+](=O)[O-])cc1 = 0

a. N[C@@H](CC(=O)O)C(=O)N1CCC[C@H]1C(=O)Nc1ccc([N+](=O)[O-])cc1 [Asp-Pro-pNA] (H-Asp-Pro-pNA)
b. CC(C)C[C@H](N)C(=O)Nc1ccc([N+](=O)[O-])cc1
c. N=C(N)NCCC[C@H](N)C(=O)N1CCC[C@H]1C(=O)Nc1ccc([N+](=O)[O-])cc1 [Arg-Pro-pNA] (H-Arg-Pro-pNA)
Returns the items ordered by Percent Activity Retative to Ala-Pro-pNA, from maximum to minimum. Please reply with the labels ordered as requested. Many thanks.
c, a, b
